systemUnderTest: ATP-binding cassette transporter A1 (ABCA1) (UniProt P41233 1-2261, limits assumed)
Sequence (P41233 whole entry): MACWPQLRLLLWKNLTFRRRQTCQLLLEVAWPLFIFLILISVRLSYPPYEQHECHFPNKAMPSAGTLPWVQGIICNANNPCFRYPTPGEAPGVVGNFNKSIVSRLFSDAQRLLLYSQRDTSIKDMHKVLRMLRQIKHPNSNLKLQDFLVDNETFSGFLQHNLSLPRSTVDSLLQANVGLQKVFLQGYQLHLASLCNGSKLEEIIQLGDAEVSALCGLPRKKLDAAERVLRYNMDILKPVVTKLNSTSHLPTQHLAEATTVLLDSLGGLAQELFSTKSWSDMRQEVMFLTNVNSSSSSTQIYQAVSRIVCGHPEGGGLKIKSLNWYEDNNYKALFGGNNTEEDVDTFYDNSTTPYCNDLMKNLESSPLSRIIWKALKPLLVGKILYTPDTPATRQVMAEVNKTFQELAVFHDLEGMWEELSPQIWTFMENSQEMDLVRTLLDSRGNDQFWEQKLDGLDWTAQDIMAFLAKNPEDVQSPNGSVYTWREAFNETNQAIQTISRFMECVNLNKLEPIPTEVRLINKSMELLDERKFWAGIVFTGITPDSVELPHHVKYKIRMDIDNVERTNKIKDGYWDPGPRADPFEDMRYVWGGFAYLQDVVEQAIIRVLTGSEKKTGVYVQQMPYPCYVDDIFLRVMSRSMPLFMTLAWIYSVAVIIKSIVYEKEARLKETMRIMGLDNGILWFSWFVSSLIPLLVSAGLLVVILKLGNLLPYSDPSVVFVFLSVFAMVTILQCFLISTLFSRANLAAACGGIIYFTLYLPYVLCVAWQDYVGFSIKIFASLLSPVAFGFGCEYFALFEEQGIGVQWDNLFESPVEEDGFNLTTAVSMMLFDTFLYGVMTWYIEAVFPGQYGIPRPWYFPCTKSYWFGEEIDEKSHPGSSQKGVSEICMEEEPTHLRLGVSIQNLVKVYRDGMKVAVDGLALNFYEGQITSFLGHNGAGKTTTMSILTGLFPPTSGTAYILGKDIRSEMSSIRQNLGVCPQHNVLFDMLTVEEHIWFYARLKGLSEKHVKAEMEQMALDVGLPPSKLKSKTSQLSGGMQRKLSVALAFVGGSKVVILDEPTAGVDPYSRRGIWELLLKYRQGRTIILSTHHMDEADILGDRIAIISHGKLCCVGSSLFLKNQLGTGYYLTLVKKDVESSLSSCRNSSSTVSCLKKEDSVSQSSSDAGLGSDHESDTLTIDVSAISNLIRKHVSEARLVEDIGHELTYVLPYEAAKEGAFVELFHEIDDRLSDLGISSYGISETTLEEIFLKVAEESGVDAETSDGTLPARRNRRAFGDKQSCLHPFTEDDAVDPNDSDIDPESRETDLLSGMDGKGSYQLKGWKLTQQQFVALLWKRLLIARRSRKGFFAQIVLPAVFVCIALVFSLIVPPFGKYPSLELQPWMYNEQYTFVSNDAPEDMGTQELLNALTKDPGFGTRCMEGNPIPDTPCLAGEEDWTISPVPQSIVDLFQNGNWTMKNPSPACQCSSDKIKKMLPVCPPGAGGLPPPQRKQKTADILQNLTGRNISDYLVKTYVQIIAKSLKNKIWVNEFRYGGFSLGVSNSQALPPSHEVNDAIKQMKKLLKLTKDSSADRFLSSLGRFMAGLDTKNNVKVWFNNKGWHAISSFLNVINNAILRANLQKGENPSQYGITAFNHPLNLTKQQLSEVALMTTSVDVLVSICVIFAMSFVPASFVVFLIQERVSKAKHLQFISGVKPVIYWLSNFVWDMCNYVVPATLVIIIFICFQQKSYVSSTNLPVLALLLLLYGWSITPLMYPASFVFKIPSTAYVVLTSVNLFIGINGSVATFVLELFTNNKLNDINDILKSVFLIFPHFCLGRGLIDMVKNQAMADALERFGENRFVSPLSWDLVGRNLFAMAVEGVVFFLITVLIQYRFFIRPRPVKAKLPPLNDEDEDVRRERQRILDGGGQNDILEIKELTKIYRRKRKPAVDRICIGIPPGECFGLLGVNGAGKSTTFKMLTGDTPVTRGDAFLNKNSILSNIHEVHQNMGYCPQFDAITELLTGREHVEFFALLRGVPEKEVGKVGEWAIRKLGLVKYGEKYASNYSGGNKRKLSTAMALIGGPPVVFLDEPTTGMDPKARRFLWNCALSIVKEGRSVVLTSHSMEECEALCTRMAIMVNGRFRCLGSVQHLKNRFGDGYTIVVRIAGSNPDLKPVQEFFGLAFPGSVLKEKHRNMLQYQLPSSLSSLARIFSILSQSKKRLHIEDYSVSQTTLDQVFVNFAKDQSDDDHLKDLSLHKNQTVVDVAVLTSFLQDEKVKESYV
testProtocol: cell-based or functional assay
Entries and their % cholesterol efflux/4 hours at 1.0 µg/ml
Provide the reading as a plain figure in %.

Guide cases for % cholesterol efflux/4 hours at 1.0 µg/ml, answers given:
binder	result
EVREKLEAWFELFREFLERFL [N965-6]	1.59
EVREKLEAWFELFREFAERFLS [N965-3]	1.06
ELREKLEAWFELFREFLERF [SEQ ID NO:2 peptide]	1.72
EVREKLEAWFELFREFAERFKS [N965-2]	0.01
EVREKLEAWFELFREFLERFKS [N965-4]	2.7

Prompt: Sample ELREKLEAWRELFEEFFARFLS [N965-9] — what was its % cholesterol efflux/4 hours at 1.0 µg/ml?
Response: 0.72

Prompt: Quick one: % cholesterol efflux/4 hours at 1.0 µg/ml for EVREKLEAWFEAFREFAERFKS [N965-1] ?
Response: 0

Prompt: Requested field: % cholesterol efflux/4 hours at 1.0 µg/ml. Item: EVREKLEAWFELFREFLERFLS [N965-5]
Response: 2.13

Prompt: Value lookup for % cholesterol efflux/4 hours at 1.0 µg/ml; key = EVREKLEAWFELFREFLERF [N965-7]
Response: 1.39
